System: HCT-15 colon
Assay: NCI tumour cell line growth inhibition, 48 h
OUTCOME MEASURE: TGI

Study these solved cases before continuing.
{"MOLECULE": "COc1cc(S(=O)(=O)Nc2ccc(-c3csc(/N=C\\C=C\\c4ccccc4)n3)cc2)ccc1Cl", "OUTCOME MEASURE": "TGI", "MEASURED VALUE": "> 100 µM"}
{"MOLECULE": "O=[N+]([O-])c1cc([N+](=O)[O-])c(C(Cl)C(Cl)c2ccccc2)cc1C(Cl)C(Cl)c1ccccc1 (stereo not given)", "OUTCOME MEASURE": "TGI", "MEASURED VALUE": "3.12 µM"}
{"MOLECULE": "COc1cccc2cc(-c3nc(C4CCC(C(=O)O)CC4)n4ncnc(N)c34)[nH]c12 (stereo not given)", "OUTCOME MEASURE": "TGI", "MEASURED VALUE": "> 100 µM"}
{"MOLECULE": "COC(=O)c1cn(CCCCO)nn1", "OUTCOME MEASURE": "TGI", "MEASURED VALUE": "> 100 µM"}

Let's switch to this molecule now.
Noted for Nc1ccc(-c2nc3ccccc3s2)cc1I : its TGI reads > 100 µM

----------
Tested on: UACC-257 melanoma
Experiment: NCI tumour cell line growth inhibition, 48 h
I'd be grateful if you could share measured TGI for these entries.

{"COMPOUND": "COc1ccc(CCN2COc3ccc4ccc(=O)oc4c3C2)cc1OC", "TGI": "> 100 µM"}
{"COMPOUND": "ClCCCC1COc2ccccc2O1 (stereo not given)", "TGI": "> 100 µM"}
{"COMPOUND": "CCCCCCCCCCCCCCC[C@@H](O)C[N+](C)(C)CCO", "TGI": "49.2 µM"}
{"COMPOUND": "COc1ccc(C(=O)C(CC2C(=O)CC(C)(C)C(C(=O)C(=O)Nc3c(C)cccc3C)C2=O)c2ccc(OC)cc2)cc1 (stereo not given)", "TGI": "> 100 µM"}

Let's switch to this compound now.
Noted for CC1=C2[C@@H](c3ccccc3)C3C=CC2(c2ccccc23)N(C(=O)Nc2cccc3ccccc23)C1=O (stereo not given in full) : its TGI reads > 100 µM

----------
Test system: SF-295 CNS
Test: NCI tumour cell line growth inhibition, 48 h
OUTCOME MEASURE: TGI

Study these solved cases before continuing.
{"COMPOUND": "Cc1nc2ccc(S(=O)(=O)Nc3ccccc3Cl)cc2c(=O)n1NC(=O)CNc1ccccc1Cl", "STUDY TARGET": "SF-295 CNS", "TGI": "> 100 µM"}
{"COMPOUND": "Cc1[nH]c2ccccc2c1C1=CC(=O)C=CC1=O", "STUDY TARGET": "SF-295 CNS", "TGI": "41 µM"}
{"COMPOUND": "COc1ccc(/C(Cl)=C(\\CNc2ccccn2)c2ccccc2)cc1OC", "STUDY TARGET": "SF-295 CNS", "TGI": "> 100 µM"}

I need TGI for every entry listed below, if you could help.
1. CCOC(=O)/C(=C/c1ccc(Cl)cc1)N(CC)CC
2. O=c1nc(-c2ccccc2)scc1-c1ccccc1
3. Cc1cc(O)c(O)c(Oc2cc(C)cc(O)c2O)c1
4. CN(C)c1ccc(/C=C2\N=C(c3ccccc3)N(/N=C3\C(=O)Nc4ccccc43)C2=O)cc1
5. O=C(O)C1CCCCC1C(=O)Nc1nc2ccccc2[nH]1 (stereo unspecified)

-- reply
> 100 µM
> 100 µM
55.7 µM
> 100 µM
> 100 µM

I need TGI for every entry listed below, if you could help.
1. [O]=[W](=[O])([OH])[OH]
2. Cc1ccc(C2SC(N)=Nc3c2c(C)nn3C(=O)c2ccc(Cl)cc2)cc1 (stereo unspecified)
3. O=C(OC(CNc1c(C(=O)c2ccccc2)c(=O)n(Cc2ccccc2)c(=O)n1Cc1ccccc1)CN1CCCCC1)c1ccccc1 (stereo unspecified)

-- reply
> 100 µM
> 10 µM
42.5 µM
